- Assay Protocol: Clearance in C57BL6 mouse at 3 mg/kg, iv
- Format: ADME, organism-based
- Test Conditions: in vivo
Observed Property: clearance (mL/min/kg)
Express it in mL/min/kg; write the number only.

Param item = `COc1cc(N)c(F)cc1C(=O)CCC1CCN(CC2CCCCC2)CC1.O=C(O)/C=C/C(=O)O` ; retrieve measured clearance.
191

====

Listing: inhibition of selected compounds
- Assayed Target: Acetylcholinesterase (Homo sapiens, UniProt P22303)
- Sequence (P22303 whole entry): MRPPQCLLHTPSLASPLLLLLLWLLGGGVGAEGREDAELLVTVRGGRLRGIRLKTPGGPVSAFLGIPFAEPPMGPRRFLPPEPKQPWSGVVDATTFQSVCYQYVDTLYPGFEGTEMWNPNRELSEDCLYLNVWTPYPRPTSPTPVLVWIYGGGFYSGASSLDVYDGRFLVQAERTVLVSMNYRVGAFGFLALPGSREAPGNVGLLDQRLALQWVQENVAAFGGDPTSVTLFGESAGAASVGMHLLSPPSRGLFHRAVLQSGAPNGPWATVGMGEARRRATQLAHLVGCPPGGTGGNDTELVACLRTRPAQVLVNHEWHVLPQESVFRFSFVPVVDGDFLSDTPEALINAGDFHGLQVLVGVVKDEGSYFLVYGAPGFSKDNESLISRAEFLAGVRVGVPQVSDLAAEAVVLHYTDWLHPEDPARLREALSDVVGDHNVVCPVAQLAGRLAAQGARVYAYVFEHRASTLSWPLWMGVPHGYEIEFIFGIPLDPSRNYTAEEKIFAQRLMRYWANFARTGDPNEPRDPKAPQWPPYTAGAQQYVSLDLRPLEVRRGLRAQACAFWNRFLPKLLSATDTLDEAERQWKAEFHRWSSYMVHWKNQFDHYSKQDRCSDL
- Assay Protocol: Inhibition of recombinant human erythrocyte AChE using acetyl-or butyrylthiocholine iodide as substrate at 1 x 10^-6M preincubated for 5 mins followed by substrate addition and measured every min for 10 mins by Ellman's method relative to control
- Test Conditions: dose 1.0 10^-6M, time 15.0 min
Express it in %; write the number only.

Solved entries:
Nc1ccc(C(=O)CCC2CCN(CC3CCCCC3)CC2)cc1 | 78
COc1ccccc1C(=O)CCC1CCN(CC2CCCCC2)CC1 | 85
Nc1cc(OCCF)c(C(=O)CCC2CCN(CC3CCCCC3)CC2)cc1Cl | 60
COc1c(C(=O)CCC2CCN(CC3CCCCC3)CC2)cc(F)c(N)c1I | 89

Okay, next one:
Param item = `Nc1cc(O)c(C(=O)CCC2CCN(CC3CCCCC3)CC2)cc1Cl` ; retrieve measured inhibition.
93

====

- Assayed Target: 5-hydroxytryptamine receptor 4 (Homo sapiens)
- Sequence (Q13639 whole entry): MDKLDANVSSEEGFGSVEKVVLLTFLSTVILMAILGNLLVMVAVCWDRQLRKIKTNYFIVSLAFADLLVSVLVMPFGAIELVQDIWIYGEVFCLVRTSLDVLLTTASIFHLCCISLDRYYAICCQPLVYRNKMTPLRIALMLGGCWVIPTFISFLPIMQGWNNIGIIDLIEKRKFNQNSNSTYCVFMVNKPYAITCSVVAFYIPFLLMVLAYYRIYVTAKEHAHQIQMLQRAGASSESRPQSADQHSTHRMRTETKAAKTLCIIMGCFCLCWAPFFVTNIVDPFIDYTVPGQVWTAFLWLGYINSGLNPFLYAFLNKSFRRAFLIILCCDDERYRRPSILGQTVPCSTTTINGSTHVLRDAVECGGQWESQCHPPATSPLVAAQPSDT
- Assay Protocol: Inhibition of human recombinant 5HT4 receptor at 1 x 10^-6M incubated for 60 mins relative to control
- Test Conditions: dose 1.0 10^-6M
Observed Property: inhibition (%)
Express it in %; write the number only.

Solved entries:
Nc1cc(OCCF)c(C(=O)CCC2CCN(CC3CCCCC3)CC2)cc1Cl | 102
Nc1cc(O)c(C(=O)CCC2CCN(CC3CCCCC3)CC2)cc1Cl | 96

Okay, next one:
Param item = `COc1ccccc1C(=O)CCC1CCN(CC2CCCCC2)CC1` ; retrieve measured inhibition.
102
